List of IC50 values.
# target: HCV NS3/4A 1b protease A156T (Hepatitis C virus genotype 1b, UniProt Q9WMX2, A1182T)
# Construct: 10× stocks of NS3/4A protease enzyme from Bioenza (Mountain View, Calif.); purchased Bioenza (Mountain View, Calif.)
# assay_overview: HCV protease FRET assay (IC50_APP), Example 16
# Format: biochemical

// known answers, use as guide
C=CC(=O)N[C@H](C)C(=O)N1C[C@H](OC(=O)N2Cc3cccc(F)c3C2)C[C@H]1C(=O)N[C@]1(C(=O)NS(=O)(=O)C2CC2)C[C@H]1C=C = < 10 nM
C=C[C@@H]1C[C@]1(NC(=O)[C@@H]1C[C@@H]2CN1C(=O)[C@H](CCC(=O)C=C(C)C)NC(=O)OCC(C)(C)CC/C=C/c1cccc3c1CN(C3)C(=O)O2)C(=O)NS(=O)(=O)C1CC1 = < 10 nM
C=CC(=O)NCC(=O)N1C[C@H](OC(=O)N2Cc3cccc(F)c3C2)C[C@H]1C(=O)N[C@]1(C(=O)NS(=O)(=O)C2CC2)C[C@H]1C=C = < 10 nM
C=CC(=O)NCC[C@H](NC(=O)OC(C)(C)C)C(=O)N1C[C@H](OC(=O)N2Cc3cccc(F)c3C2)C[C@H]1C(=O)N[C@]1(C(=O)NS(=O)(=O)C2CC2)C[C@H]1C=C = 10 to 100 nM

Pending molecule:
q: Consider the molecule C=C[C@@H]1C[C@]1(NC(=O)[C@@H]1CC(OC(=O)N2Cc3cccc(F)c3C2)CN1C(=O)[C@H](CCC(=O)C(=C)C)NC(=O)OC(C)(C)C)C(=O)NS(=O)(=O)C1CC1 (some centres unmarked) and give its measured IC50.
a: < 10 nM

----------
List of pIC50 values.
# target: HCV NS3/4A 1b protease wild type (Hepatitis C virus genotype 1b, UniProt Q9WMX2)
# Construct: 10× stocks of NS3/4A protease enzyme from Bioenza (Mountain View, Calif.); purchased Bioenza (Mountain View, Calif.)
# assay_overview: HCV protease FRET assay (IC50_APP), Example 16
# Format: biochemical
pIC50: −log10 of the molar value.

C=C[C@@H]1C[C@]1(NC(=O)[C@@H]1CC(OC(=O)N2Cc3cccc(F)c3C2)CN1C(=O)[C@H](CC(=O)/C(C)=C/C)NC(=O)OC(C)(C)C)C(=O)NS(=O)(=O)C1CC1 (some centres unmarked) [Compound I-70] = > 8.00
C=CC(=O)N(C)CC(NC(=O)C12CCC(C(=O)OC)(CC1)CC2)C(=O)N1CC(OC(=O)N2Cc3cccc(F)c3C2)C[C@H]1C(=O)N[C@]1(C(=O)NS(=O)(=O)C2CC2)C[C@H]1C=C (some centres unmarked) [Compound I-52] = 7.00 to 8.00
C=CC(=O)N(C)C[C@H](NC(=O)OC1CCCC1)C(=O)N1C[C@H](OC(=O)N2Cc3cccc(F)c3C2)C[C@H]1C(=O)N[C@]1(C(=O)NS(=O)(=O)C2CC2)C[C@H]1C=C [Compound I-20] = > 8.00
CC[C@@H]1C[C@]1(NC(=O)[C@@H]1C[C@@H]2CN1C(=O)[C@H](CCC(=O)C=C(C)C)NC(=O)OCC(C)(C)CC/C=C/c1cccc3c1CN(C3)C(=O)O2)C(=O)NS(=O)(=O)C1CC1 [Compound I-56] = > 8.00

Pending molecule:
q: Query the reported pIC50 for HCV NS3/4A 1b protease wild type (Hepatitis C virus genotype 1b, UniProt Q9WMX2); item: C=C[C@@H]1C[C@]1(NC(=O)[C@@H]1CC(OC(=O)N2Cc3cccc(F)c3C2)CN1C(=O)[C@@H](C)Nc1ccnc(Cl)n1)C(=O)NS(=O)(=O)C1CC1 (some centres unmarked) [Compound I-49]
a: 6.00 to 7.00

----------
List of pEC50 values.
# System: HCV RNA replicon in cell line ET (luc-ubi-neo/ET), human Huh7 hepatoma
# assay_overview: Replicon luciferase assay, Example 26
# Format: cell-based
# measurement_context: Hepatitis C virus, Huh-7, assay of Example 26, 72 hr, read-out: Inhibition, Replicon, EC50 value
pEC50: −log10 of the molar value.

CC(C)(C)OC(=O)N[C@H]1CN(S(=O)(=O)c2ccccc2[N+](=O)[O-])CCC/C=C\[C@@H]2C[C@@]2(C(=O)NS(=O)(=O)C2CC2)NC(=O)[C@@H]2CC(OC(=O)N3Cc4cccc(F)c4C3)CN2C1=O (stereo partly drawn) = 7.00 to 8.00
C=C[C@@H]1C[C@]1(NC(=O)[C@@H]1CC(OC(=O)N2Cc3cccc(F)c3C2)CN1C(=O)[C@H](CC(=O)C(=C)C)NC(=O)OC(C)(C)C)C(=O)NS(=O)(=O)C1CC1 (stereo partly drawn) = 6.00 to 7.00
C=CC(=O)N1CC/C=C\[C@@H]2C[C@@]2(C(=O)NS(=O)(=O)C2CC2)NC(=O)[C@@H]2CC(OC(=O)N3Cc4cccc(F)c4C3)CN2C(=O)[C@@H](NC(=O)OC(C)(C)C)CC1 (stereo partly drawn) = 6.00 to 7.00
C=C[C@@H]1C[C@]1(NC(=O)[C@@H]1C[C@@H]2CN1C(=O)[C@H](CC(=O)C=C(C)C)NC(=O)OCC(C)(C)CC/C=C/c1cccc3c1CN(C3)C(=O)O2)C(=O)NS(=O)(=O)C1CC1 = > 8.00
C=C[C@@H]1C[C@]1(NC(=O)[C@@H]1C[C@@H]2CN1C(=O)[C@H](CCC(=O)C=C(C)C)NC(=O)OCC(C)(C)CC/C=C/c1cccc3c1CN(C3)C(=O)O2)C(=O)NS(=O)(=O)C1CC1 = > 8.00

q: Consider the molecule C=CC(=O)N1C/C=C\[C@@H]2C[C@@]2(C(=O)NS(=O)(=O)C2CC2)NC(=O)[C@@H]2CC(OC(=O)N3Cc4cccc(F)c4C3)CN2C(=O)[C@@H](NC(=O)OC(C)(C)C)CCC1 (stereo partly drawn) and give its measured pEC50.
a: 6.00 to 7.00

q: Consider the molecule C=C[C@@H]1C[C@]1(NC(=O)[C@@H]1CC(OC(=O)N2Cc3cccc(F)c3C2)CN1C(=O)C(CN(C)C(=O)/C=C/CN(C)C)NC(=O)OC(C)(C)C)C(=O)NS(=O)(=O)C1CC1 (stereo partly drawn) and give its measured pEC50.
a: 5.00 to 6.00

q: Consider the molecule C=C[C@@H]1C[C@]1(NC(=O)[C@@H]1CC(OC(=O)N2Cc3cccc(F)c3C2)CN1C(=O)[C@H](CCC(=O)C#CC(C)(C)C)NC(=O)OC(C)(C)C)C(=O)NS(=O)(=O)C1CC1 (stereo partly drawn) and give its measured pEC50.
a: 7.00 to 8.00

q: Consider the molecule C=C(C)C(=O)C[C@H](NC(=O)OC(C)(C)C)C(=O)N1CC(OC(=O)N2Cc3cccc(F)c3C2)C[C@H]1C(=O)N[C@]1(C(=O)NS(=O)(=O)C2CC2)C[C@H]1CC (stereo partly drawn) and give its measured pEC50.
a: 6.00 to 7.00

----------
# target: HCV NS3/4A 1b protease R155K (Hepatitis C virus genotype 1b, UniProt Q9WMX2, R1181K)
# Construct: 10× stocks of NS3/4A protease enzyme from Bioenza (Mountain View, Calif.)
# assay_overview: HCV protease FRET assay (IC50_APP), Example 16
# measurement_context: reaction started immediately after enzyme addition, read-out: Inhibition (apparent IC50, IC50_APP), HCV R155K
List of IC50 values.

q: Query the reported IC50 for HCV NS3/4A 1b protease R155K (Hepatitis C virus genotype 1b, UniProt Q9WMX2, R1181K); item: `C=C[C@@H]1C[C@]1(NC(=O)[C@@H]1C[C@@H]2CN1C(=O)[C@H](CCC(=O)C=C(C)C)NC(=O)OCC(C)(C)CC/C=C/c1cccc3c1CN(C3)C(=O)O2)C(=O)NS(=O)(=O)C1CC1`
a: 10 to 100 nM

----------
List of IC50 values.
# target: HCV NS3/4A 1b protease A156T (Hepatitis C virus genotype 1b, UniProt Q9WMX2, A1182T)
# Construct: 10× stocks of NS3/4A protease enzyme from Bioenza (Mountain View, Calif.); purchased Bioenza (Mountain View, Calif.)
# assay_overview: HCV protease FRET assay (IC50_APP), Example 16
# Assay type: biochemical

// known answers, use as guide
C=CC(=O)O[C@H](C)[C@H](NC(=O)OC(C)(C)C)C(=O)N1C[C@H](OC(=O)N2Cc3cccc(F)c3C2)C[C@H]1C(=O)N[C@]1(C(=O)NS(=O)(=O)C2CC2)C[C@H]1C=C [Compound I-24] = < 10 nM
C=CC(=O)NC[C@H](NC(=O)OC1CCCC1)C(=O)N1C[C@H](OC(=O)N2Cc3cccc(F)c3C2)C[C@H]1C(=O)N[C@]1(C(=O)NS(=O)(=O)C2CC2)C[C@H]1C=C [Compound I-19] = < 10 nM
C=CC(=O)N[C@@H](C(=O)N1C[C@H](OC(=O)N2Cc3cccc(F)c3C2)C[C@H]1C(=O)N[C@]1(C(=O)NS(=O)(=O)C2CC2)C[C@H]1C=C)C(C)C [Compound I-9] = < 10 nM
C=C[C@@H]1C[C@]1(NC(=O)[C@@H]1C[C@@H](OC(=O)N2Cc3cccc(F)c3C2)CN1C(=O)CNC(=O)c1ccccc1OC(C)=O)C(=O)NS(=O)(=O)C1CC1 [Compound I-10] = 1000 to 10000 nM

Pending molecule:
q: Query the reported IC50 for HCV NS3/4A 1b protease A156T (Hepatitis C virus genotype 1b, UniProt Q9WMX2, A1182T); item: C=CC(=O)N(C)CC[C@H](NC(=O)OC(C)(C)C)C(=O)N1C[C@H](OC(=O)N2Cc3cccc(F)c3C2)C[C@H]1C(=O)N[C@]1(C(=O)NS(=O)(=O)C2CC2)C[C@H]1C=C [Compound I-13]
a: < 10 nM
